For each record, write down the corresponding pIC50.
System: SK-MEL-28
Assay explanation: Growth inhibition of human SK-MEL-28 cells after 72 hrs by MTT assay
Assay type: functional, cell-based
Assay setup: SK-MEL-28, 72 h
Scale for pIC50: -log10 of concentration given in mol/L; no unit attached.

stdin: What value of pIC50 has been recorded for this entry: CCC(=O)O[C@@H](/C(C)=C/[C@@H](C)c1oc(CC)c(C)c(=O)c1C)[C@H](C)[C@@H](OC(=O)CC(C)C)[C@@H](C)c1oc([C@@H](C)[C@H](CC)OC(C)=O)c(C)c(=O)c1C
stdout: 5.15

stdin: # repeat for CCc1oc([C@H](C)/C=C(\C)[C@H](OC(C)=O)[C@H](C)[C@@H](OC(=O)CC(C)C)[C@@H](C)c2oc([C@@H](C)[C@H](CC)OC(C)=O)c(C)c(=O)c2C)c(C)c(=O)c1C
stdout: 4.48

stdin: # repeat for CCC(=O)O[C@@H](/C(C)=C/[C@@H](C)c1oc(CC)c(C)c(=O)c1C)[C@H](C)[C@@H](OC(=O)CC(C)C)[C@@H](C)c1oc([C@@H](C)[C@@H](O)CC)c(C)c(=O)c1C
stdout: 4.60

* * *

Assay explanation: Growth inhibition of human Hs683 cells after 72 hrs by MTT assay
Type: functional, cell-based
Assay setup: Hs 683, 72 h
Measurement label: IC50

stdin: What value of IC50 has been recorded for this entry: CCC(=O)[C@@H](C)c1oc([C@H](C)[C@@H]2O[C@](O)([C@@H](C)c3oc(CC)c(C)c(=O)c3C)[C@@H](C)[C@@H](O)[C@@H]2C)c(C)c(=O)c1C
stdout: > 100 µM

stdin: # repeat for CCc1oc([C@H](C)/C=C(\C)[C@H](OC(C)=O)[C@H](C)[C@@H](OC(=O)CC(C)C)[C@@H](C)c2oc([C@@H](C)[C@@H](O)CC)c(C)c(=O)c2C)c(C)c(=O)c1C
stdout: 30 µM

stdin: # repeat for CCC(=O)[C@H](C)c1oc([C@H](C)[C@@H]2O[C@](O)([C@@H](C)c3oc(CC)c(C)c(=O)c3C)[C@@H](C)[C@@H](O)[C@@H]2C)c(C)c(=O)c1C
stdout: > 100 µM

stdin: # repeat for CCc1oc([C@H](C)/C=C(\C)[C@H](O)[C@H](C)[C@@H](OC(=O)CC(C)C)[C@@H](C)c2oc([C@@H](C)[C@@H](O)CC)c(C)c(=O)c2C)c(C)c(=O)c1C
stdout: > 100 µM

stdin: # repeat for CC[C@@]1(O)C(=O)OCc2c1cc1n(c2=O)Cc2cc3ccccc3nc2-1 [CAMPTOTHECIN]
stdout: < 0.01 µM

* * *

Test system: A549
Assay explanation: Growth inhibition of human A549 cells after 72 hrs by MTT assay
Format: functional, cell-based
Assay setup: A549, 72 h
pIC50: −log10 of the molar value.
Measurement label: pIC50

stdin: Recorded pIC50 for CCc1oc([C@H](C)/C=C(\C)[C@H](OC(C)=O)[C@H](C)[C@@H](OC(=O)CC(C)C)[C@@H](C)c2oc([C@@H](C)[C@@H](O)CC)c(C)c(=O)c2C)c(C)c(=O)c1C with A549, please?
stdout: 4.82

stdin: # repeat for CCc1oc([C@H](C)/C=C(\C)[C@H](O)[C@H](C)[C@@H](OC(=O)CC(C)C)[C@@H](C)c2oc([C@@H](C)[C@@H](O)CC)c(C)c(=O)c2C)c(C)c(=O)c1C
stdout: < 4.00

stdin: # repeat for CC[C@@]1(O)C(=O)OCc2c1cc1n(c2=O)Cc2cc3ccccc3nc2-1 [CAMPTOTHECIN]
stdout: > 8.00

* * *

Test system: A549
Assay explanation: Growth inhibition of human A549 cells after 72 hrs by MTT assay
Assay type: functional, cell-based
Assay setup: A549, 72 h
For each record, write down the corresponding IC50.

stdin: What value of IC50 has been recorded for this entry: CCC(=O)O[C@@H](/C(C)=C/[C@@H](C)c1oc(CC)c(C)c(=O)c1C)[C@H](C)[C@@H](OC(=O)CC(C)C)[C@@H](C)c1oc([C@@H](C)[C@@H](O)CC)c(C)c(=O)c1C
stdout: 12 µM

stdin: # repeat for CCC(=O)[C@H](C)c1oc([C@H](C)[C@@H]2O[C@](O)([C@@H](C)c3oc(CC)c(C)c(=O)c3C)[C@@H](C)[C@@H](OC(=O)CC(C)C)[C@@H]2C)c(C)c(=O)c1C
stdout: 26 µM

stdin: # repeat for CCC(=O)[C@@H](C)c1oc([C@H](C)[C@@H]2O[C@](O)([C@@H](C)c3oc(CC)c(C)c(=O)c3C)[C@@H](C)[C@@H](O)[C@@H]2C)c(C)c(=O)c1C
stdout: > 100 µM

stdin: # repeat for CCC(=O)O[C@@H](/C(C)=C/[C@@H](C)c1oc(CC)c(C)c(=O)c1C)[C@H](C)[C@@H](OC(=O)CC(C)C)[C@@H](C)c1oc([C@@H](C)[C@H](CC)OC(C)=O)c(C)c(=O)c1C
stdout: 3 µM

stdin: # repeat for CCC(=O)[C@H](C)c1oc([C@H](C)[C@@H]2O[C@](O)([C@@H](C)c3oc(CC)c(C)c(=O)c3C)[C@@H](C)[C@@H](O)[C@@H]2C)c(C)c(=O)c1C
stdout: > 100 µM

stdin: # repeat for COc1cc([C@@H]2c3cc4c(cc3[C@@H](O[C@@H]3O[C@@H]5CO[C@@H](C)O[C@H]5[C@H](O)[C@H]3O)[C@H]3COC(=O)[C@H]23)OCO4)cc(OC)c1O [ETOPOSIDE]
stdout: 2 µM

stdin: # repeat for CCc1oc([C@H](C)/C=C(\C)[C@H](OC(C)=O)[C@H](C)[C@@H](OC(=O)CC(C)C)[C@@H](C)c2oc([C@@H](C)[C@H](CC)OC(C)=O)c(C)c(=O)c2C)c(C)c(=O)c1C
stdout: 28 µM

* * *

Assay explanation: Growth inhibition of human Hs683 cells after 72 hrs by MTT assay
Type: functional, cell-based
Assay setup: Hs 683, 72 h
Measurement label: IC50 (µM)
Give the value, in units of µM, as a plain number.

stdin: What value of IC50 has been recorded for this entry: CCC(=O)O[C@@H](/C(C)=C/[C@@H](C)c1oc(CC)c(C)c(=O)c1C)[C@H](C)[C@@H](OC(=O)CC(C)C)[C@@H](C)c1oc([C@@H](C)[C@@H](O)CC)c(C)c(=O)c1C
stdout: 13

stdin: # repeat for CCc1oc([C@H](C)/C=C(\C)[C@H](OC(C)=O)[C@H](C)[C@@H](OC(=O)CC(C)C)[C@@H](C)c2oc([C@@H](C)[C@H](CC)OC(C)=O)c(C)c(=O)c2C)c(C)c(=O)c1C
stdout: 24

stdin: # repeat for CCC(=O)O[C@@H](/C(C)=C/[C@@H](C)c1oc(CC)c(C)c(=O)c1C)[C@H](C)[C@@H](OC(=O)CC(C)C)[C@@H](C)c1oc([C@@H](C)[C@H](CC)OC(C)=O)c(C)c(=O)c1C
stdout: 3

stdin: # repeat for CCC(=O)[C@H](C)c1oc([C@H](C)[C@@H]2O[C@](O)([C@@H](C)c3oc(CC)c(C)c(=O)c3C)[C@@H](C)[C@@H](OC(=O)CC(C)C)[C@@H]2C)c(C)c(=O)c1C
stdout: 23

stdin: # repeat for COc1cc([C@@H]2c3cc4c(cc3[C@@H](O[C@@H]3O[C@@H]5CO[C@@H](C)O[C@H]5[C@H](O)[C@H]3O)[C@H]3COC(=O)[C@H]23)OCO4)cc(OC)c1O [ETOPOSIDE]
stdout: 2

* * *

For each record, write down the corresponding pIC50.
System: MCF7
Assay explanation: Growth inhibition of human MCF7 cells after 72 hrs by MTT assay
Assay type: functional, cell-based
Assay setup: MCF7, 72 h
Scale for pIC50: -log10 of concentration given in mol/L; no unit attached.

stdin: What value of pIC50 has been recorded for this entry: COc1cc([C@@H]2c3cc4c(cc3[C@@H](O[C@@H]3O[C@@H]5CO[C@@H](C)O[C@H]5[C@H](O)[C@H]3O)[C@H]3COC(=O)[C@H]23)OCO4)cc(OC)c1O [ETOPOSIDE]
stdout: 5.40

stdin: # repeat for CCc1oc([C@H](C)/C=C(\C)[C@H](OC(C)=O)[C@H](C)[C@@H](OC(=O)CC(C)C)[C@@H](C)c2oc([C@@H](C)[C@@H](O)CC)c(C)c(=O)c2C)c(C)c(=O)c1C
stdout: 4.82

stdin: # repeat for CCC(=O)O[C@@H](/C(C)=C/[C@@H](C)c1oc(CC)c(C)c(=O)c1C)[C@H](C)[C@@H](OC(=O)CC(C)C)[C@@H](C)c1oc([C@@H](C)[C@@H](O)CC)c(C)c(=O)c1C
stdout: 4.92

stdin: # repeat for CCC(=O)O[C@@H](/C(C)=C/[C@@H](C)c1oc(CC)c(C)c(=O)c1C)[C@H](C)[C@@H](OC(=O)CC(C)C)[C@@H](C)c1oc([C@@H](C)[C@H](CC)OC(C)=O)c(C)c(=O)c1C
stdout: 5.40

stdin: # repeat for CCc1oc([C@H](C)/C=C(\C)[C@H](OC(C)=O)[C@H](C)[C@@H](OC(=O)CC(C)C)[C@@H](C)c2oc([C@@H](C)[C@H](CC)OC(C)=O)c(C)c(=O)c2C)c(C)c(=O)c1C
stdout: 4.60

Every entry's value here was drawn from ChEMBL document CHEMBL3085650.
